Value source: paper PMC10525927

Below, each of the molecules is paired with its reported pIC50 value.
- Tested on: MDA-MB-231 breast cancer cells
- protocol notes: MTT cell viability assay, MDA-MB-231
- Type: cell-based
- reported conditions: Homo sapiens, MDA-MB-231, 48 h, mean ± SD
Reminder that pIC50 is minus the log10 of a molar concentration.

Example results:
- molecule: "CC(C(=O)[Se][Se]C(=O)C(C)c1cccc(C(=O)c2ccccc2)c1)c1cccc(C(=O)c2ccccc2)c1 (centres unmarked) [Compound 4]"
  pIC50: 5.37
- molecule: "CC(=O)Oc1ccccc1C(=O)[Se][Se]C(=O)c1ccccc1OC(C)=O [Compound 1, 2-Acetoxybenzoic diselenoperoxyanhydride]"
  pIC50: 4.74
- molecule: "CC(C)Cc1ccc(C(C)C(=O)[Se][Se]C(=O)C(C)c2ccc(CC(C)C)cc2)cc1 (centres unmarked) [Compound 5]"
  pIC50: 5.08

Now for another entry.
For reference, reported pIC50 for COc1ccc2cc(C(C)C(=O)[Se][Se]C(=O)C(C)c3ccc4cc(OC)ccc4c3)ccc2c1 (centres unmarked) [Compound 3] stands at 5.24

====

- System: HCT-116 colon cancer cells
- protocol notes: MTT cell viability assay, HCT-116
- Type: cell-based
- reported conditions: Homo sapiens, HCT-116, 48 h, mean ± SD
Below, each of the molecules is paired with its reported IC50 value.
Output spec: scalar in µM, unitless text.

- molecule: "COc1ccc2cc(C(C)C(=O)[Se][Se]C(=O)C(C)c3ccc4cc(OC)ccc4c3)ccc2c1 (centres unmarked)"
  IC50 [µM]: 9.1

For reference, reported IC50 for CC(C)Cc1ccc(C(C)C(=O)[Se][Se]C(=O)C(C)c2ccc(CC(C)C)cc2)cc1 (centres unmarked) stands at 9

For reference, reported IC50 for CC(C(=O)[Se][Se]C(=O)C(C)c1cccc(C(=O)c2ccccc2)c1)c1cccc(C(=O)c2ccccc2)c1 (centres unmarked) stands at 5.9

====

- System: H1299 lung cancer cells
- protocol notes: MTT cell viability assay, H1299
- Assay type: cell-based
- reported conditions: 48 h, mean ± SD
- Protocol: The cell lines were purchased from the American Type Culture Collection (ATCC). […] The antiproliferative activity and selectivity in vitro of the Se-NSAID derivatives were determined by the (3-(4,5-dimethylthiazol-2-yl)-2,5-diphenyltetrazolium bromide) (MTT) assay. […] Absorbance was measured at 550 nm. IC50, GI50, TGI, and LC50 values were calculated using OriginPro version 8.5.1. software by nonlinear curve fitting. […]
measured quantity: pIC50
Reminder that pIC50 is minus the log10 of a molar concentration.

For reference, reported pIC50 for CC(=O)Oc1ccccc1C(=O)[Se][Se]C(=O)c1ccccc1OC(C)=O [Compound 1, 2-Acetoxybenzoic diselenoperoxyanhydride] stands at 5.07

====

- Test system: DU-145 prostate cancer cells
- protocol notes: MTT cell viability assay, DU-145
- Format: cell-based
- reported conditions: 48 h, mean ± SD, Table S1
Below, each of the compounds is paired with its reported LD50 DU-145 value.
// return the numeric value with its unit appended

Example results:
- compound: "CC(C)Cc1ccc(C(C)C(=O)[Se][Se]C(=O)C(C)c2ccc(CC(C)C)cc2)cc1 (stereo not shown)"
  LD50 DU-145: "9.0 ± 0.4 µM"
- compound: "COc1ccc2cc(C(C)C(=O)[Se][Se]C(=O)C(C)c3ccc4cc(OC)ccc4c3)ccc2c1 (stereo not shown)"
  LD50 DU-145: "10.4 ± 2.4 µM"
- compound: "CC(=O)Oc1ccccc1C(=O)[Se][Se]C(=O)c1ccccc1OC(C)=O [Compound 1, 2-Acetoxybenzoic diselenoperoxyanhydride]"
  LD50 DU-145: "6.1 ± 0.7 µM"

For reference, reported LD50 DU-145 for CC(C(=O)[Se][Se]C(=O)C(C)c1cccc(C(=O)c2ccccc2)c1)c1cccc(C(=O)c2ccccc2)c1 (stereo not shown) stands at 39.6 ± 2.4 µM

====

- Tested on: DU-145 prostate cancer cells
Binary call on GI50 with cut-off 6 µM: strictly below means true, and equality or higher means false.

Solved entries:
- compound: "COc1ccc2cc(C(C)C(=O)[Se][Se]C(=O)C(C)c3ccc4cc(OC)ccc4c3)ccc2c1 (centres unmarked)"
  group label: "true"
- compound: "COc1ccc2c(c1)c(CC(=O)[Se][Se]C(=O)Cc1c(C)n(C(=O)c3ccc(Cl)cc3)c3ccc(OC)cc13)c(C)n2C(=O)c1ccc(Cl)cc1"
  group label: "false"
- compound: "CC(=O)Oc1ccccc1C(=O)[Se][Se]C(=O)c1ccccc1OC(C)=O [Compound 1, 2-Acetoxybenzoic diselenoperoxyanhydride]"
  group label: "true"

Challenge: Bench note: check whether CC(C(=O)[Se][Se]C(=O)C(C)c1cccc(C(=O)c2ccccc2)c1)c1cccc(C(=O)c2ccccc2)c1 (centres unmarked) shows GI50 below 6 µM
Response given: false

====

Below, each of the compounds is paired with its reported pIC50 value.
- Test system: T-47D breast cancer cells
- protocol notes: MTT cell viability assay, T-47D
- Type: cell-based
- reported conditions: Homo sapiens, T47D, 48 h, mean ± SD
Reminder that pIC50 is minus the log10 of a molar concentration.

- compound: "CC(C)Cc1ccc(C(C)C(=O)[Se][Se]C(=O)C(C)c2ccc(CC(C)C)cc2)cc1 (centres unmarked) [Compound 5]"
  measured quantity: "pIC50"
  assay value: 5.42
- compound: "COc1ccc2cc(C(C)C(=O)[Se][Se]C(=O)C(C)c3ccc4cc(OC)ccc4c3)ccc2c1 (centres unmarked) [Compound 3]"
  measured quantity: "pIC50"
  assay value: 5.25
- compound: "CC(C(=O)[Se][Se]C(=O)C(C)c1cccc(C(=O)c2ccccc2)c1)c1cccc(C(=O)c2ccccc2)c1 (centres unmarked) [Compound 4]"
  measured quantity: "pIC50"
  assay value: 4.59

For reference, reported pIC50 for CC(=O)Oc1ccccc1C(=O)[Se][Se]C(=O)c1ccccc1OC(C)=O [Compound 1, 2-Acetoxybenzoic diselenoperoxyanhydride] stands at 5.23

====

- Tested on: T-47D breast cancer cells
- protocol notes: MTT cell viability assay, T-47D
- Assay type: cell-based
- reported conditions: 48 h, mean ± SD, Table S1
measured quantity: LD50 T-47D

- compound: "CC(=O)Oc1ccccc1C(=O)[Se][Se]C(=O)c1ccccc1OC(C)=O [Compound 1, 2-Acetoxybenzoic diselenoperoxyanhydride]"
  system tested: "T-47D breast cancer cells"
  assay value: "6.0 ± 1.9 µM"

For reference, reported LD50 T-47D for CC(C(=O)[Se][Se]C(=O)C(C)c1cccc(C(=O)c2ccccc2)c1)c1cccc(C(=O)c2ccccc2)c1 (stereo not shown) stands at 27.2 ± 2.3 µM

For reference, reported LD50 T-47D for CC(C)Cc1ccc(C(C)C(=O)[Se][Se]C(=O)C(C)c2ccc(CC(C)C)cc2)cc1 (stereo not shown) stands at 4.2 ± 0.3 µM

For reference, reported LD50 T-47D for COc1ccc2cc(C(C)C(=O)[Se][Se]C(=O)C(C)c3ccc4cc(OC)ccc4c3)ccc2c1 (stereo not shown) stands at 6.3 ± 0.7 µM

====

A549 lung cancer cells data, read-out GI50
Output spec: scalar in µM, unitless text.

Example results:
- compound: "CC(C)Cc1ccc(C(C)C(=O)[Se][Se]C(=O)C(C)c2ccc(CC(C)C)cc2)cc1 (centres unmarked)"
  GI50 / µM: 2.3
- compound: "COc1ccc2cc(C(C)C(=O)[Se][Se]C(=O)C(C)c3ccc4cc(OC)ccc4c3)ccc2c1 (centres unmarked)"
  GI50 / µM: 3.3

Now for another entry.
For reference, reported GI50 for CC(C(=O)[Se][Se]C(=O)C(C)c1cccc(C(=O)c2ccccc2)c1)c1cccc(C(=O)c2ccccc2)c1 (centres unmarked) stands at 8.1

====

- System: PC-3 prostate cancer cells
- protocol notes: MTT cell viability assay, PC-3
- Assay type: cell-based
- reported conditions: 48 h, mean ± SD
measured quantity: IC50 (µM)
Output spec: scalar in µM, unitless text.

Example results:
- compound: "CC(C(=O)[Se][Se]C(=O)C(C)c1cccc(C(=O)c2ccccc2)c1)c1cccc(C(=O)c2ccccc2)c1 (stereo not shown)"
  IC50 [µM]: 5.8
- compound: "CC(C)Cc1ccc(C(C)C(=O)[Se][Se]C(=O)C(C)c2ccc(CC(C)C)cc2)cc1 (stereo not shown)"
  IC50 [µM]: 7.4

Now for another entry.
For reference, reported IC50 for COc1ccc2cc(C(C)C(=O)[Se][Se]C(=O)C(C)c3ccc4cc(OC)ccc4c3)ccc2c1 (stereo not shown) stands at 5.2

====

- Test system: H1299 lung cancer cells
- protocol notes: MTT cell viability assay, H1299
- Type: cell-based
- reported conditions: Homo sapiens, NCI-H1299, 48 h, mean ± SD
- Procedure: The cell lines were purchased from the American Type Culture Collection (ATCC). […] The antiproliferative activity and selectivity in vitro of the Se-NSAID derivatives were determined by the (3-(4,5-dimethylthiazol-2-yl)-2,5-diphenyltetrazolium bromide) (MTT) assay. […] Absorbance was measured at 550 nm. IC50, GI50, TGI, and LC50 values were calculated using OriginPro version 8.5.1. software by nonlinear curve fitting. […]
measured quantity: pIC50
Reminder that pIC50 is minus the log10 of a molar concentration.

For reference, reported pIC50 for CC(C)Cc1ccc(C(C)C(=O)[Se][Se]C(=O)C(C)c2ccc(CC(C)C)cc2)cc1 (centres unmarked) [Compound 5] stands at 5.03

For reference, reported pIC50 for COc1ccc2cc(C(C)C(=O)[Se][Se]C(=O)C(C)c3ccc4cc(OC)ccc4c3)ccc2c1 (centres unmarked) [Compound 3] stands at 5.09

For reference, reported pIC50 for CC(C(=O)[Se][Se]C(=O)C(C)c1cccc(C(=O)c2ccccc2)c1)c1cccc(C(=O)c2ccccc2)c1 (centres unmarked) [Compound 4] stands at 4.50
